The measurements presented in this section are drawn from patent US20200392161A1.

- TARGET DESC: SHP2 (Homo sapiens, UniProt Q06124)
- Sequence (Q06124 whole entry): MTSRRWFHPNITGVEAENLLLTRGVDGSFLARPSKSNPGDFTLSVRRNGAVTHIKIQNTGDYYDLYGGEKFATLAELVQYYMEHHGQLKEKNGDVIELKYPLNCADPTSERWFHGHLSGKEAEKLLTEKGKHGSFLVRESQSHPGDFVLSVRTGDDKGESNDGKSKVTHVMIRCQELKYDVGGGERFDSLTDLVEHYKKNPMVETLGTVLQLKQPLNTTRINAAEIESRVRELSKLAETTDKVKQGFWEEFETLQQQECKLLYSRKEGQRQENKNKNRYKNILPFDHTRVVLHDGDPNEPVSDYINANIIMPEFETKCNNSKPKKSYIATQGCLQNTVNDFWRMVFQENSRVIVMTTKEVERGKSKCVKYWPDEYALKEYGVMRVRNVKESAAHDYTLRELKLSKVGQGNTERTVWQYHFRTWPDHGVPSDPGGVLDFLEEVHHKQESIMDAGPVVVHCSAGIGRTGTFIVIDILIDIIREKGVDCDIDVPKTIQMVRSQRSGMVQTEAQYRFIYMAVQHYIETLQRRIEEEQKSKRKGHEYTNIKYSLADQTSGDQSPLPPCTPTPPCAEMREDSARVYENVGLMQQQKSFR
- METHOD DESCRIPTION: SHP2 allosteric inhibition assay (DiFMUP prompt fluorescence)
- Type: biochemical
- ASSAY SETUP: Table 3; 0.25 nM SHP2, 0.5 μM IRS1_pY1172(dPEG8)pY1222 peptide, DiFMUP 100 μM
pIC50: −log10 of the molar value.
PROPERTY NAME: pIC50

The following compounds have reported results that may help.
{"columns": ["COMPOUND STRING", "pIC50"],
 "data": [
  ["c1nnc(SCc2csc(-c3ccc4c(c3)OCO4)n2)s1", "> 3.30"],
  ["c1cc(-c2nc(CSc3nncs3)cs2)co1", "< 3.00"]
]}

Next compound, pIC50 to be filled in.
Input line: Using the record for `COc1cccc(Nc2nnc(SCc3csc(-c4ccc(OC)c(OC)c4)n3)s2)c1` , report its pIC50.
Output line: < 3.00

###

- TARGET DESC: SHP2 (Homo sapiens, UniProt Q06124)
- METHOD DESCRIPTION: SHP2 allosteric inhibition assay (DiFMUP prompt fluorescence)
- Type: biochemical
- ASSAY SETUP: Table 2; 0.25 nM SHP2, 0.5 μM IRS1_pY1172(dPEG8)pY1222 peptide, DiFMUP 100 μM
pIC50: −log10 of the molar value. Where a name gives a salt, the structure may show the parent alone.
PROPERTY NAME: pIC50

Answered cases to consult:
{"columns": ["COMPOUND", "pIC50"],
 "data": [
  ["CC1(N)CCN(c2nc(N)c(-c3cccc(Cl)c3Cl)s2)CC1 [Compound B1, dihydrochloride]", "> 4.00"],
  ["CC1(CN)CCN(c2ncc(-c3ccccc3Cl)s2)C1 (stereo not shown) [Compound B3, formate]", "< 4.00"],
  ["CC1(CN)CCN(c2ncc(C(=O)N3CCCc4ncccc43)s2)C1 (stereo not shown) [Compound B2]", "< 4.00"]
]}

Here is the next item to consider.
Input line: Reported pIC50 for Cc1nc(N2CCC(C)(CN)C2)sc1-c1ccccc1Cl (stereo not shown) [Compound B4] : what is it?
Output line: < 4.00

###

- TARGET DESC: SHP2 (Homo sapiens)
- METHOD DESCRIPTION: SHP2 allosteric inhibition assay (DiFMUP prompt fluorescence)
- Format: biochemical
- ASSAY SETUP: Table 1; 0.25 nM SHP2, 0.5 μM IRS1_pY1172(dPEG8)pY1222 peptide, DiFMUP 100 μM
pIC50: −log10 of the molar value. Structures can show the parent of a compound that is named as a salt.
pIC50 overview

{"columns": ["COMPOUND", "TARGET DESC", "PROPERTY NAME", "RESULT"],
 "data": [
  ["CC1(CN)CCN(c2nn3c(N)c(-c4cccc(Cl)c4Cl)nc3s2)CC1 [Compound A9, formate]", "SHP2 (Homo sapiens)", "pIC50", "4.70 to 5.30"],
  ["Cc1c(-c2ccccc2Cl)nc2sc(N3CCC(C)(CN)C3)nn12 (centres unmarked) [Compound A10, formate]", "SHP2 (Homo sapiens)", "pIC50", "> 5.30"],
  ["Nc1c(-c2cccc(Cl)c2Cl)nc2sc(N3C[C@@H]4[C@@H](N)[C@@H]4C3)nn12", "SHP2 (Homo sapiens)", "pIC50", "> 5.30"],
  ["CC1(CN)CCN(c2nn3cc(C(=O)N4CCCc5ncccc54)nc3s2)C1 (centres unmarked) [Compound A8, formate]", "SHP2 (Homo sapiens)", "pIC50", "< 4.70"],
  ["CC1(N)CCN(c2nn3c(N)c(-c4cccc(Cl)c4Cl)nc3s2)CC1 [Compound A4, formate]", "SHP2 (Homo sapiens)", "pIC50", "< 4.70"]
]}

Input line: Give pIC50 (SHP2 (Homo sapiens)) of the following compound: CC1(CN)CCN(c2nn3cc(-c4cccc(Cl)c4Cl)nc3s2)CC1 [Compound A2, formate]
Output line: 4.70 to 5.30

Input line: Request body: readout pIC50, system SHP2 (Homo sapiens), query `Nc1c(-c2cccc(Cl)c2Cl)nc2sc(N3CCNCC3)nn12` . Return the value.
Output line: < 4.70

Input line: // map CC1(CN)CCN(c2nn3c(N)c(-c4ccccc4Cl)nc3s2)C1 (centres unmarked) to recorded pIC50 (system: SHP2 (Homo sapiens))
Output line: 4.70 to 5.30
